Origin of values: patent US20240002495A1

- STUDY TARGET: T1, biotinylated 6His tag-AviTag-linked mature human IL-33 (residues 112 to 270) (human, UniProt O95760 112-270, biotin on the AviTag portion (BirA))
- T1 construct: made in E. coli; also called biotinylated human IL-33 protein
- T1 sequence: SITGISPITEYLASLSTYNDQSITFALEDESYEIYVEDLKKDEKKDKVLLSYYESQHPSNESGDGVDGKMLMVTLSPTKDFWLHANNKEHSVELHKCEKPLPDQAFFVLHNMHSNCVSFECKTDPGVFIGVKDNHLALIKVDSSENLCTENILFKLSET
- ASSAY TEXT: SPR, IL-33 on chip, Fab supernatant as analyte

- BINDER: "A10-1C04 (Fab) (Fab, V domains shown, Fab secreted by E. coli, tested as culture supernatant; also called V1) VH: EVQLLESGGGLVQPGGSLRLSCAASGFTFSDYYMNWVRQAPGKGLEWVSSISRYSSYIYYADSVKGRFTISRDNSKNTLYLQMNSLRAEDTAVYYCARDIGGMDVWGQGTLVTVSS VL: QSVLTQPPSASGTPGQRVTISCTGSSSNIGAVYDVHWYQQLPGTAPKLLIYRNNQRPSGVPDRFSGSKSGTSASLAISGLRSEDEADYYCQTYDSSRWVFGGGTKLTVL"
  QUANTITY UNIT: "RU"
  Human IL-33 Binding Amount (RU): 26
- BINDER: "A27-1A06 (Fab) (Fab, V domains shown, Fab secreted by E. coli, tested as culture supernatant; also called V21) VH: EVQLLESGGGLVQPGGSLRLSCAASGFTFSNYYMHWVRQAPGKGLEWVSSISARSSYRYYADSVKGRFTISRDNSKNTLYLQMNSLRAEDTAVYYCARLATRHLAFDIWGQGTLVTVSS VL: QSVLTQPPSASGTPGQRVTISCSGSSSNIGNNAVNWYQQLPGTAPKLLIYASNMRRPGVPDRFSGSKSGTSASLAISGLRSEDEADYYCAAWDDSQKVFVFGGGTKLTVL"
  QUANTITY UNIT: "RU"
  Human IL-33 Binding Amount (RU): 306
- BINDER: "A25-2E04 (Fab) (Fab, V domains shown, Fab secreted by E. coli, tested as culture supernatant; also called V11) VH: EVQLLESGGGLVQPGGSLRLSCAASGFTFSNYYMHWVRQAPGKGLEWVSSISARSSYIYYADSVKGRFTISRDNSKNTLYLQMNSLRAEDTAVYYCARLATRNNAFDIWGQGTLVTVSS VL: QSVLTQPPSASGTPGQRVTISCSGSCSNIGRNAVNWYQQLPGTAPKLLIYASNMRVIGVPDRFSGSKSGTSASLAISGLRSEDEADYYCEAWDDSQKGVVFGGGTKLTVL"
  QUANTITY UNIT: "RU"
  Human IL-33 Binding Amount (RU): 195
